target-under-test: Vesicular acetylcholine transporter (Homo sapiens, UniProt Q16572)
Sequence (Q16572 whole entry): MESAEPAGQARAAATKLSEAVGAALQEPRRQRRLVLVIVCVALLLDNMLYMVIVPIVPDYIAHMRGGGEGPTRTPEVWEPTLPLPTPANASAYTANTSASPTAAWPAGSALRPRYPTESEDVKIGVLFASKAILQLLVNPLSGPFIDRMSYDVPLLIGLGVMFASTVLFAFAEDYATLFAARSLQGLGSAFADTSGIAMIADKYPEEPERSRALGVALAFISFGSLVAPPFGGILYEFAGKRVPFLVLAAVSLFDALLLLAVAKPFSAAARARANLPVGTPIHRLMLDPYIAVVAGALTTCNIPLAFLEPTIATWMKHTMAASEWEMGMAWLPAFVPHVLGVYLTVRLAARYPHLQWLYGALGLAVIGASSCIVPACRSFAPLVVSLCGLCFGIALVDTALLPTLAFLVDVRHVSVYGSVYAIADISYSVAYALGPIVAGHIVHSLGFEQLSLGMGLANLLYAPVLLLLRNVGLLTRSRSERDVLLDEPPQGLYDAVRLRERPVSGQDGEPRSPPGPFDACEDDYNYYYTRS

{"compound": "[17F]CCC1OC2(CCN(Cc3ccccc3)CC2)c2ccccc21 (stereo unspecified) [[18F]FLUSPIDINE]", "unit-spec": "nM", "Ki": 211}
